- System: IGROV1 ovarian
- assayExplanation: NCI-60 one-dose screen, 48 h
- conditionContext: 10 µM
The panel holds about 83,000 compounds, 20% with a hit somewhere; the sample as a whole holds those more often. Calls of active or inactive are those of the source. The calls were made as follows: active = growth percent below 10; inactive = the rest.
Permitted responses: YES for active, NO for inactive

Example entries and their recorded answers appear below.
compound | answerLabel
O=C(CCc1ccccc1)N1CCN(C(=O)CCc2ccccc2)CC1 | NO
CCCCC(CC#N)(CCC)CCC | NO
C=CCN1C(=O)/C(=C\c2ccc3c(c2)CCC3)SC1=S | NO
COc1ccc(-c2nsc3c2NC(=O)CC3c2cccc(Cl)c2)cc1 (configuration not stated) | NO
CCOC(=O)c1cc(-c2ccccc2)nc(N)n1 | NO

Input: Hello, I am checking results. What call was entered for Clc1cc(Cl)c(OCCCCCCN2CCNCC2)c(Cl)c1 ?
Output: NO

Input: Hello, I am checking results. What call was entered for CC(Oc1ccc(Cl)cc1)c1ccccc1 (configuration not stated) ?
Output: NO

Input: Hello, I am checking results. What call was entered for CCOC(=S)Sc1ccc([N+](=O)[O-])cc1[N+](=O)[O-] ?
Output: NO

Input: Hello, I am checking results. What call was entered for N#Cc1c2c([nH]c(=O)c1C(N)=O)CCCCC2 ?
Output: NO
